Give measured relative viability for each item. Keep answers brief.
# Test system: LCLC-103H
# experimentalDetails: relative viability (nuclei count vs DMSO), 5 days (fraction); higher = more cells survive
# measurementParameters: first compound 1.265 µM
Please reply with the number alone, leaving off any unit.

// query // lookup relative viability | system=LCLC-103H | key= Clc1ccc(Nc2nnc(Cc3ccncc3)c3ccccc23)cc1 [Vatalanib] + CC(=O)Nc1cccc(-n2c(=O)n(C3CC3)c(=O)c3c(Nc4ccc(I)cc4F)n(C)c(=O)c(C)c32)c1 [Trametinib] (partner 0.02 µM)
// result 0.653

// query And what about the compound Clc1ccc(Nc2nnc(Cc3ccncc3)c3ccccc23)cc1 [Vatalanib] + CC(C)C[C@H](NC(=O)[C@H](Cc1ccccc1)NC(=O)c1cnccn1)B(O)O [Bortezomib] (partner 0.002 µM) ?
// result 1.01

// query And what about the compound Clc1ccc(Nc2nnc(Cc3ccncc3)c3ccccc23)cc1 [Vatalanib] + Cc1nc(Nc2ncc(C(=O)Nc3c(C)cccc3Cl)s2)cc(N2CCN(CCO)CC2)n1 [Dasatinib] (partner 0.075 µM) ?
// result 0.484
